assay: mn = molality of the nth substance listed, in mol/kg; details: 298.15 K; 101 kPa; Liquid; Vibrating tube method; m1 = 0.05
measurement type: mass density (kg/m3)

(Q) Respond only with mass density recorded for [Br-].[K+] [potassium bromide] + O
(A) 1001.25

(Q) Respond only with mass density recorded for CC(=O)[O-].[K+] [potassium ethanoate] + O
(A) 999.46

(Q) Respond only with mass density recorded for [Cl-].[Na+] [sodium chloride] + O
(A) 999.12

(Q) Respond only with mass density recorded for [Cl-].[K+] [potassium chloride] + O
(A) 999.45

---

experiment: mn = molality of the nth substance listed, in mol/kg; details: 298.15 K; 101 kPa; Liquid; Vibrating tube method; m1 = 0.16
measurement type: mass density (kg/m3)

(Q) Respond only with mass density recorded for [Br-].[K+] [potassium bromide] + O
(A) 1010.47

(Q) Respond only with mass density recorded for CC(=O)[O-].[K+] [potassium ethanoate] + O
(A) 1004.6

(Q) Respond only with mass density recorded for [Cl-].[Na+] [sodium chloride] + O
(A) 1003.6

(Q) Respond only with mass density recorded for [Cl-].[K+] [potassium chloride] + O
(A) 1004.53
